Catalogue of apparent KD of MS2 coat protein readings, one per entry.
- Test system: MS2 coat protein
- measurementDescription: apparent KD of MS2 coat protein; designed switch direction (-1 OFF switch, 1 ON switch): -1; higher = weaker reporter binding
- assayConditions: input ligand: FMN 200 uM

seq	apparent KD of MS2 coat protein / nM
CAUGAAGACAAGGAUAUCCGAAUGACGUAAGAAGGAGAAGGUGUCACAUGAGGAUCACCCAUGUGGGAUCUCUG [EX6 B.15] (Eterna round: R97, puzzle: Exclusion 6)	138
GGAAAACGCUGAGGAUAUGGAAGGAAAGGAAGACCAGAAGGCAGGGUCACACAACAUGAGGAUCACCCAUGUGUGUGUAGCGGA [exng1 ex3] (Eterna round: R96, puzzle: Exclusion NG 1)	9.75
ACACAAAGCUAGGAUAUCCAGGCAUCUUCGGCCGGAGAAGGAGCCACAUGAGGAUCACCCAUGUGGUGAUCCUG [eternacac ex6r4 sub5] (Eterna round: R97, puzzle: Exclusion 6)	70.9
AUAAUGUAAGGAUAUCAGUCGUACAGCGAUAGCUGUACGACUGAGAAGGUACAUGAGGAUCACCCAUGUGAUCA [E4/8-A4] (Eterna round: R97, puzzle: Exclusion 4)	666
UGAUCACAUGAGGAUCACCCAUGUCAGGAUAUCGUCACUGGAGCUGCGGCUCCAGUGACGAGAAGGGACAUAAU [E1/3-A3] (Eterna round: R97, puzzle: Exclusion 1)	50.8

###

- System: MS2 coat protein
- measurementDescription: apparent KD of MS2 coat protein; designed switch direction (-1 OFF switch, 1 ON switch): -1; higher = weaker reporter binding
- assayConditions: input ligand: none

seq	tgt	unitsOfMeasure	apparent KD of MS2 coat protein
ACAUGAGGAUCACCCAUGUCUGGCUGGUCCGUCUCGGCUGUCGAGGAUAUGGCUCGGUGUCCGCGCUAGAAGGCGGGAGCUGGU [Aenatbe mod 79] (Eterna round: R96, puzzle: Exclusion NG 3)	MS2 coat protein	nM	77.5
CUGCUGGAGCGUUGCUUUGGUCGUACAUGAGGAUCACCCAUGUAGGAUAUGGUAAAAUUUGCUUGCUAGAAGGAUAGAGUGGUC [salish99_ExNG3_r04_613] (Eterna round: R96, puzzle: Exclusion NG 3)	MS2 coat protein	nM	64.6
ACAUCACAGCUAGGAUAUAGAUGACAUGAGGAUCACCCAUGUUAUCCCAUGUUGACGGAAACCGACUAGAAGGAGCUACAGAUG [Ex NG2 #7] (Eterna round: R96, puzzle: Exclusion NG 2)	MS2 coat protein	nM	47.9
UCUUAUCUAUAGGAUAUAGGAGCAGAAUUGCGAUUAGAAGGAUGGACAUGAGGAUCACCCAUGUGCAUGGGCUU [EX6 B.6] (Eterna round: R97, puzzle: Exclusion 6)	MS2 coat protein	nM	30.6
GCCUGGGCAGGAUAUACAUGAGGAUCACCCAUGUCUGUUGACCGAACUCCGGAUAUAUGUAGAAGGGUCGCAGA [Eternabot (L1) Solution 100] (Eterna round: R97, puzzle: Exclusion 3)	MS2 coat protein	nM	49.8

###

- Tested on: K4 kissing-loop RNA reporter;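 note: bound reporter read as fluorescence of individual clusters on recovered sequencing chips by microscopy, with normalized cluster intensities fitted with a binding model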
- measurementDescription: apparent KD of K4 kissing-loop reporter; higher = weaker reporter binding
- assayConditions: Eterna round: R107; input ligand: theophylline 20 uM
Rule: class 1 for apparent KD of K4 kissing-loop reporter not less than 300 nM, class 0 for anything less.

seq	tgt	labelValue
AACUGUCGAGGACAACAUUACUGAGGUGAUACCAGCAUCGAAAGAUGCCCUUGGCAGCACCAACUUGCAGUGAUGUUGCAAGUAA [BrourdMod 9 - Jieux - Exclusion - Theophylline A]	K4 kissing-loop RNA reporter	class 1
AAGCAGUCACUCGAAUCCAUCGAAGAUGGACGAGGACCGGUACGGCCGCCACUCGGAGUGAUGUUCCGAAGACUGCAAAAUAAAA	K4 kissing-loop RNA reporter	class 1
AGCGAUGUUUUCUCUAAGAGUGAUGUUUUUCGAGGACCGGUACGGCCGCCACUCGAAUAAAGUGUGUGGUAGUGAGCUGUUGACA [#17 K4 Tryptophan A Exclusion]	K4 kissing-loop RNA reporter	class 1
GCAGUGAUGUUGCGCGGGUACGGUGGAGUGCGAGGACCGGUACGGCCGCCACUCGUACGGAACUGGCUAAUAUAUGGAUAGGUGA [VI]	K4 kissing-loop RNA reporter	class 1
UAUCAGAUUACUGAUACCAGUCUAAAGACAGUGAUGUUGUCUGAUCGACCACGAUCAAAGGACCCUUGGCAGCAGUAUACUAUUC [Theo B SS t5]	K4 kissing-loop RNA reporter	class 0
GCCAGUGAUGUUGGCGAACCGACGCAUGCAGAGGAUAUUCGAUCUUGAAGAAGGCUGCAGCGUCAUCAUACGCAGUGAUGUUGCG [Same State FMN A GF 27]	K4 kissing-loop RNA reporter	class 0
UUUAGAUGAAGUGAUACCAGACUUGAAAGUGAUGUUUUCCAAUAAUUUAAAUUAUUAGCUGUCCCUUGGCAGCACAGUUUAUUUA [JR_ExcTheophyB_Sub008]	K4 kissing-loop RNA reporter	class 1
GGGCCUAUUGAUGCUGGAGUAAUUCUGGAAGGAGCGCUCAAAGGAGCAGGUAGGUCGCCAGUAUACAAGGGCAGUGAUGUUGCCC [Entimalati]	K4 kissing-loop RNA reporter	class 0
UACUAGUGAAACUAGUAGGUGCUAGGUGAAGGAGCGAUCGAAAGAUCAGGUAGGUCGCACCUUCCUGAGUGAUGUUCAGGUAAUA [KL-SSArg-A3]	K4 kissing-loop RNA reporter	class 0
UUUGUAUCGGGAAGGAGCGUGAAUGAUAAUGAAUAUAGUGAUGUUAUAUAUAAGAACGAAUCACAGGUAGGUCGCCCGGAUGAGU [SSArgB.N]	K4 kissing-loop RNA reporter	class 1
GGAUCCACCAGUGAUGUUGGAGAAAACUCUAAGGAUAUGACGAAAGUCAGAAGGUGGUAGACUGGGCAAAGUCCGGUCGGAUCCA [FmnA10 U30+G66]	K4 kissing-loop RNA reporter	class 1
GCAGCACCGAGUGAUGUUUGGUUCAGCGUGAAGGAUAUAAUAUCUGUUAGAAGGUCAAGUGAGAUUGUCGCGAAUCAGUUUUGAU [theeternabot_exclusion_KL_FMN_A_41]	K4 kissing-loop RNA reporter	class 1
CCUAUCUCAUACGAUACCAGUGAUUAACCAGUGAUGUUGGAAUAACCAAGGAAUAUUUAUCACCCUUGGCAGCGUAUGGGAUAGG [Ex Theophylline B K4 28]	K4 kissing-loop RNA reporter	class 0
GGUGACAACCAGAGGUGAUGUAUAGAAUAGCGAGGACCGGUACGGCCGCCACUCGUGAAGAGAAAGGAGUGAUGUUCCGUAAUGG [Kazoo C5]	K4 kissing-loop RNA reporter	class 1
ACAGGAUCGAAGAUCCUGAGCAGUCAGGUCCGAGGACCGGUACGGCCGCCACUCGGAGUGAUGUUCCGAAGACUGCAAAAUAAAA [#SwitchBubble 4]	K4 kissing-loop RNA reporter	class 1
ACCUUUUUUGCCAGUGAUGUUGGACAGGAAGGAGCGGGCAUAAGCCCAGGUAGGUCGCCUGUCAACUUUCUUAUAGCCCUAAGGU [KL-XArg-A17]	K4 kissing-loop RNA reporter	class 1
UGUCAUUGGUCGGCCGCCACUAGAAGGUCAAAGACCAAAGAGUGAUGUUCUUAGACGAAAGUCACUAGGACCGGGACCGAUGACU [TrypBS 7 #SwitchBubble #K4Middle]	K4 kissing-loop RNA reporter	class 1
GGAUAGGACAGAGGAUAUCUCUAAAGAGGCAAGAAAACUUGUCUCAGAGAUGACUCAGUGAUGUUGAGAGAAGGCUGUCCUAUCG [FmnBX 7 - #SwitchBubble #StaticStem]	K4 kissing-loop RNA reporter	class 0
UUGGGCAACCGAGAUACCAGUCAAAUCGCUCUGGAGUGAUGUUCCGGAACAUGCGGAGAAGACCCUUGGCAGCUCAAGACGGACA [Exclusion Theophylline B GF 1]	K4 kissing-loop RNA reporter	class 0
ACUGGGUUGACGAAAGUCAACAAAAGAGAAGGAGCGCACGAAAGUGCAGGUAGGUCGCUCAUCCAGUGAUGUUGGAUCAUCCAGA [#SwitchBubble 17 #K4Late]	K4 kissing-loop RNA reporter	class 1
UAAGUGAUUCACAAGCUAGAGUUACUCGAAGGAGCGACGAAUUCGUCAGGUAGGUCGCGAGUGAUGUUCGCAUGCUCUAGCAAAU [AK1 Exc Arginine A]	K4 kissing-loop RNA reporter	class 1
AAGGUAAGUGCAUACAAAGUGAUGUUUUGUCGAGGACCGGUACGGCCGCCACUCGCCCAGUUAAGUGACCGACGUCAACGAAUAA [theeternabot_exclusion_KL_Trp_A_21]	K4 kissing-loop RNA reporter	class 1

Provenance of the data: the supplement of paper PMC9170038
